Biological target: T1, murine IL-11 (mouse, UniProt P47873 22-199)
T1 construct: bought from Invigate; also called mIL-11; mIL11
T1 sequence: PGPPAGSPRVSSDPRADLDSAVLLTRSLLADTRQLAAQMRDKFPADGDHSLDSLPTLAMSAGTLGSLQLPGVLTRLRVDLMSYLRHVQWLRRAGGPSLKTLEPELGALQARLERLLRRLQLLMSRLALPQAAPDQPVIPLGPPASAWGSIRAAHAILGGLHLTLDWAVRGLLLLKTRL
Assay: SPR, antibody captured, IL-11 as analyte
measured-property: Kd (nM)

[[record]]
binder = "TPP-19872 (antibody, V domains shown) VH: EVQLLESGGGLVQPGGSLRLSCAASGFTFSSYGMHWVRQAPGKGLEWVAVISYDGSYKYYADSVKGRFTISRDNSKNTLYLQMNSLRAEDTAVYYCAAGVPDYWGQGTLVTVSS VL: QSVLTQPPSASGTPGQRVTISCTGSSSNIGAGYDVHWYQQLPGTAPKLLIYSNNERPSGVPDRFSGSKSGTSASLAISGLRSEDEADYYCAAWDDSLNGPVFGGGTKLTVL"
endpoint_result = 0.47

[[record]]
binder = "TPP-19874 (antibody, V domains shown) VH: EVQLLESGGGLVQPGGSLRLSCAASGFTFSSYGMHWVRQAPGKGLEWVSVISYDGSYKYYADSVKGRFTISRDNSKNTLYLQMNSLRAEDTAVYYCARGVPDYWGQGTLVTVSS VL: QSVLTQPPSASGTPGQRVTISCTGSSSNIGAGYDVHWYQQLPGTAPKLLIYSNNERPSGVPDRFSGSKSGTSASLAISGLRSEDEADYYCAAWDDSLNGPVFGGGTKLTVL"
endpoint_result = 9.9

